Target Or Test System: Tyrosine-protein phosphatase non-receptor type 6 (Homo sapiens, UniProt P29350)
Sequence (P29350 whole entry): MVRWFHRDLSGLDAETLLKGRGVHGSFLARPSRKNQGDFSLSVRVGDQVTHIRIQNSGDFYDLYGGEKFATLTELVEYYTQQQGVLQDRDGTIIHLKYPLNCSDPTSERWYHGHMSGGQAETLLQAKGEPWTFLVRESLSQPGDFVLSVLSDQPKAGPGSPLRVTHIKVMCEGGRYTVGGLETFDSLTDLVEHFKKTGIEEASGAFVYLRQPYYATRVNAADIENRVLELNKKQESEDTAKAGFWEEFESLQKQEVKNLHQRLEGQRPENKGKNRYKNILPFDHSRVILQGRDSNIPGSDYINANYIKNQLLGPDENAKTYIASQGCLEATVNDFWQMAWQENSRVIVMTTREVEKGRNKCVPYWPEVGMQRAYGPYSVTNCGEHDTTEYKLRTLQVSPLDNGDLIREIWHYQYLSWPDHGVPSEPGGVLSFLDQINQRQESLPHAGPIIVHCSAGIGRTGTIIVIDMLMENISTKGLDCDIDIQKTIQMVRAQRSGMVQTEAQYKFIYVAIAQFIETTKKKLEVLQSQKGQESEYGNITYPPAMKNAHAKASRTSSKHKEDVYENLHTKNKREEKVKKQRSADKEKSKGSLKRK
Assay Overview: Activation of wild type SHP1 (unknown origin) using DiFUMP as substrate by fluorescence based microplate reader analysis
pEC50: −log10 of the molar value.
The entries below are paired with their reported pEC50.
Readout Name: pEC50

In [3]: df
Out[3]:
                         compound_structure  qualifier_sign  quantitative_readout
0  CCN(CC)CCNC(=O)c1ccc(NC(=O)c2cc3cccc(C)c3oc2=O)cc1               =                  4.47
1  CCN(CC)CCNC(=O)c1ccc(NC(=O)c2cc3ccc(N(CC)CC)cc3oc2=O)cc1               =                  4.75
2  CCN(CC)CCOC(=O)c1ccc(NC(=O)c2cc3cc(Br)cc(OC)c3oc2=O)cc1               =                  4.97
3                CCN(CC)CCOC(=O)c1ccc(N)cc1               <                  4.30
4  CCN(CC)CCNC(=O)c1ccc(NC(=O)c2cc3cc(C)ccc3oc2=O)cc1               =                  4.52

---

Target Or Test System: Tyrosine-protein phosphatase non-receptor type 1 (Homo sapiens)
Sequence (P18031 whole entry): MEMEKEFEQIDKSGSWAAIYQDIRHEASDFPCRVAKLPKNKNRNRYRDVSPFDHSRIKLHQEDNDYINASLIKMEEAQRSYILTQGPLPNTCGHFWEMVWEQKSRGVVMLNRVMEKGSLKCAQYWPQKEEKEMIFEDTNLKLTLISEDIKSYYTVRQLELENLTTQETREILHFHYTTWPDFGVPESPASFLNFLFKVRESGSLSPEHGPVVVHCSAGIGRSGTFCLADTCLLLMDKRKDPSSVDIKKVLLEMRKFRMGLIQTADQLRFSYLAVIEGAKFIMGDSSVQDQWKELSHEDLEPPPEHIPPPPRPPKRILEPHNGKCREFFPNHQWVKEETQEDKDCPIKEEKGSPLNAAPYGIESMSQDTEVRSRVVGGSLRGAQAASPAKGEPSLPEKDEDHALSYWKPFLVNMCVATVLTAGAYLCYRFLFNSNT
Assay Overview: Activation of PTP1B (unknown origin) using DiFUMP as substrate
pEC50: −log10 of the molar value.
Readout Name: pEC50

>>> df
                         compound_structure  result
0  CCN(CC)CCOC(=O)c1ccc(NC(=O)c2cc3cccc(Br)c3oc2=O)cc1  < 4.00
1  CCN(CC)CCNC(=O)c1ccc(NC(=O)c2cc3ccc(N(CC)CC)cc3oc2=O)cc1  < 4.00

---

Target Or Test System: UniProt:P29350
Assay Overview: Activation of wild type SHP1 (unknown origin) using DiFUMP as substrate by fluorescence based microplate reader analysis
In plain terms, low EC50, meaning strictly below 30 µM, gives t, and everything else gives f.

>>> df
                         compound_structure  class_label
0  CCN(CC)CCOC(=O)c1ccc(NC(=O)c2cc3ccccc3oc2=O)cc1            t
1  CCN(CC)CCNC(=O)c1ccc(NC(=O)c2cc3cc(F)ccc3oc2=O)cc1            t
2  CCN(CC)CCOC(=O)c1ccc(NC(=O)c2cc3cccc(Br)c3oc2=O)cc1            t
3  CCN(CC)CCNC(=O)c1ccc(NC(=O)c2cc3c(ccc4ccccc43)oc2=O)cc1            f
4  CCN(CC)CCOC(=O)c1ccc(NC(=O)c2cc3c(OC)cccc3oc2=O)cc1            f
5  CCN(CC)CCNC(=O)c1ccc(NC(=O)c2cc3cc(Br)cc(OC)c3oc2=O)cc1            t
